Cited source for all entries: paper PMC12302228

# System: HL-60
# assay_procedure: Antiproliferative activity, MTT assay
# Format: cell-based, human
# experimental_parameters: read-out: IC50 HL-60; 48 h of treatment; mean ± SEM
measured_metric: IC50 (µM)

INSERT INTO results (test_smiles, measured_metric, recorded_measurement) VALUES
  ('O=C(NCCCl)Nc1ccc(S(=O)(=O)Oc2cccnc2Br)cc1', 'IC50', 12),
  ('CC(C)c1ncccc1OS(=O)(=O)c1ccc(NC(=O)NCCCl)cc1.Cl', 'IC50', 13),
  ('CCCNC(=O)Nc1ccc(S(=O)(=O)Oc2cccnc2Br)cc1', 'IC50', 19);

I. CCCNC(=O)Nc1ccc(S(=O)(=O)Oc2cnccc2C)cc1.Cl
II. CCCNC(=O)Nc1ccc(S(=O)(=O)Oc2cnccc2C)cc1
Returns the identifier with the smallest measured IC50 among I and II . // respond with label for picked entry
I
